Hey, just so you know, these numbers are from ChEMBL document CHEMBL3433997.

Target: Hexose transporter 1 (Plasmodium falciparum)
Assay: ST_JUDE_LEISH: Cytotoxicity at 2uM final concentration against transgenic Leishmania Mexicana promastigotes LmPfHT that are glucose transport deficient and complemented with the Plasmodium falciparum hexose transporter. Activity is measured by DNA content using SYBR green in vitro
Format: functional
readoutLabel: inhibition
Answers without a unit are incomplete; give the number and then its unit.

Look over these answered cases.
Form: compound = `COc1ccc2nc(N)nc(C)c2c1` ; inhibition = 2.86%

compound CC1(C)CN2CCCC2c2cc(NC(=O)/C=C/c3ccccc3Cl)ccc21 (stereo not given) , inhibition observed: 2.04%

In plain terms, `CCOc1cc(C(=O)NC2CCN(Cc3ccccc3)CC2)ccc1-c1nc2cc(Cl)ccc2[nH]1` has a documented inhibition of 5.59%

compound `COc1ccc2nc(-c3cc(-c4ccc(NC(=O)C(C)C)cc4)cnc3N)[nH]c2c1` , inhibition observed: 40.7%

Entry CC(Oc1ccc(Cl)cc1)C(=O)NCCC1CCN(CCCCCNC(=O)/C=C/c2ccc(Cl)c(Cl)c2)CC1 (stereo not given) — recorded inhibition = 1.37%

// field: inhibition; key: `Cc1ccc(Nc2nc(C)cc(NC3CCN(C)CC3)n2)cc1` ; value = 3.12%

Just so you know, measured inhibition for `COc1ccc(C2CCN(CCCNC(=O)c3ccc(NC(=O)c4ccc(Cl)cc4)cc3)CC2)c(OC)c1` came out at 4.23%

Sample `Cc1cc(=NN=Cc2ccc(F)cc2)c2ccc(C(F)(F)F)cc2[nH]1` ; inhibition observed: 4.59%

---
What the record says about `COc1ccc(-c2ccc(NC(=O)c3cccc(C#N)c3)cc2)cc1CN1CCN(C)CC1` : inhibition is 6.51%

Input `CC(=O)Nc1ccc(OCCN(Cc2ccccc2C(F)(F)F)c2ccc(C#N)c(C(F)(F)F)c2)c(Cl)c1` . Output inhibition: 2.13%

The compound listed as CCNc1cc(C(=O)N[C@@H](Cc2ccccc2)[C@H](O)CNC(CC)c2cccc(Cl)c2)cc(N2CCCCS2(=O)=O)c1 (stereo not given in full) shows inhibition equal to 1.05%

Memo: `CCN(Cc1cccc2ccccc12)c1ccc2nc(N)nc(N)c2c1` , reported inhibition: 99%

Just so you know, measured inhibition for `COc1cc(N)cc2sc(N)nc12` came out at 0.54%

Reported inhibition for `O=C(NCCCCCN1CCC(c2c[nH]c3ccccc23)CC1)Nc1ccc(Cl)cc1Cl` was 2.01%

inhibition in this record for O=C(Nc1ccc(C(F)(F)F)cc1)c1cccc(S(=O)(=O)NCC2CCCN(CC3CCCCC3)C2)c1 (stereo not given) : 2.62%

inhibition reading for FC(F)(F)c1cccc(Nc2nc3nonc3nc2NC2C3CC4CC(C3)CC2C4)c1 (stereo not given) : 1.79%

Note to self: inhibition recorded for `O=C(N1CCN(c2ccnc3cc4c(cc23)N(Cc2ccccc2)CC4)CC1)C(F)(F)F` was 3.24%
